Tested on: Fibroblast
method-notes: Multiplex assay against human fibroblast
Type: toxicity, cell-based
condition-details: 12 h, 10 µM, compound concentration 10 uM, replicate 1
reported-metric: Population Mitochondria Different-Phenotype (%)
Answer with a number only, understood to be in %.

### Prompt Any idea what its Population Mitochondria Different-Phenotype (%) is? The molecule is Cc1nc(Cc2cccc(C(F)(F)F)c2)sc1-c1ccc(C(N)=O)nc1 [TP-024n]
### Response 16

### Prompt Any idea what its Population Mitochondria Different-Phenotype (%) is? The molecule is Cc1cc2c(cc1N1C(=O)c3cccc4c(CCCO)ccc(c34)C1=O)n(C)c(=O)n2C
### Response 7

### Prompt Any idea what its Population Mitochondria Different-Phenotype (%) is? The molecule is CCOc1cc(N2CCC(O)CC2)ccc1Nc1ncc2c(n1)N(C1CCCC1)CCC(=O)N2C
### Response 2

### Prompt Any idea what its Population Mitochondria Different-Phenotype (%) is? The molecule is COc1cc2c(NC3CCN(C(C)C)CC3)nc(N3CCC(F)(F)CC3)nc2cc1OCCCN1CCCC1
### Response 13

### Prompt Any idea what its Population Mitochondria Different-Phenotype (%) is? The molecule is CCC(=O)O[C@]1(C(=O)SCF)[C@H](C)C[C@H]2[C@@H]3C[C@H](F)C4=CC(=O)C=C[C@]4(C)[C@@]3(F)[C@@H](O)C[C@@]21C [FLUTICASONE PROPIONATE]
### Response 30

### Prompt Any idea what its Population Mitochondria Different-Phenotype (%) is? The molecule is Cl.Cl.Nc1ncnc2c1c(-c1cccc(OCc3ccccc3)c1)cn2[C@H]1C[C@@H](CN2CCC2)C1
### Response 50

### Prompt Any idea what its Population Mitochondria Different-Phenotype (%) is? The molecule is CNc1oc(-c2cccc3ccccc23)nc1C#N
### Response 0

### Prompt Any idea what its Population Mitochondria Different-Phenotype (%) is? The molecule is CCn1c(-c2nonc2N)nc2cnc(Oc3cccc(NC(=O)c4ccc(OCCN5CCOCC5)cc4)c3)cc21 [GSK-269962A]
### Response 47

### Prompt Any idea what its Population Mitochondria Different-Phenotype (%) is? The molecule is C[C@@H]1CN(c2cc(-c3nn(C)c4ccc(OC5(C)CC5)cc34)ncn2)C[C@H](C)O1
### Response 3

### Prompt Any idea what its Population Mitochondria Different-Phenotype (%) is? The molecule is CCOc1cc2ncc(C#N)c(Nc3ccc(OCc4cccc(F)c4)c(Cl)c3)c2cc1NC(=O)/C=C/CN(C)C
### Response 12

### Prompt Any idea what its Population Mitochondria Different-Phenotype (%) is? The molecule is CC(C)N1CCC(C)(C)c2cc(C#Cc3ccc(C(=O)O)cc3)ccc21
### Response 0

### Prompt Any idea what its Population Mitochondria Different-Phenotype (%) is? The molecule is CCc1cc2c(cc1CC)CC(NC[C@H](O)c1ccc(O)c3[nH]c(=O)ccc13)C2
### Response 43

### Prompt Any idea what its Population Mitochondria Different-Phenotype (%) is? The molecule is CN(C)C/C=C/C(=O)Nc1cc2c(Nc3ccc(F)c(Cl)c3)ncnc2cc1O[C@H]1CCOC1.O=C(O)/C=C\C(=O)O.O=C(O)/C=C\C(=O)O [AFATINIB DIMALEATE]
### Response 12

### Prompt Any idea what its Population Mitochondria Different-Phenotype (%) is? The molecule is O=C(O)c1ccc2cc(-c3ccc(O)c(C45CC6CC(CC(C6)C4)C5)c3)ccc2c1
### Response 0

### Prompt Any idea what its Population Mitochondria Different-Phenotype (%) is? The molecule is Cl.Cl.NC1(c2ccc(-c3nc4ccn5c(=O)[nH]nc5c4cc3-c3ccccc3)cc2)CCC1
### Response 4

### Prompt Any idea what its Population Mitochondria Different-Phenotype (%) is? The molecule is N#Cc1cnc(Nc2cc(NC[C@H]3CNCCO3)c(C(F)(F)F)cn2)cn1
### Response 1

* * *

Test system: HEK-293T
method-notes: Multiplex assay against HEK293T;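 further: share of the cells with healthy nuclei that show this phenotype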
Type: toxicity, cell-based
condition-details: human, 48 h, 1 µM, compound concentration 1 uM, replicate 2
With a cut-off of 40%, any Population Tubulin-Different-Phenotype (%) strictly below it is called 1.0; any Population Tubulin-Different-Phenotype (%) meeting it or above is called 0.0.

### Prompt Is it true that Population Tubulin-Different-Phenotype (%) reported for CC(=O)c1cc(-c2cc(C(=O)NC3CC3)ccc2C)c2ncccn12 is less than 40%?
### Response 1.0

### Prompt Is it true that Population Tubulin-Different-Phenotype (%) reported for Nc1nc2c(c(N3CCNCC3)n1)CCC1=C2[C@@H]2CCCC[C@@H]2O1 is less than 40%?
### Response 1.0

### Prompt Is it true that Population Tubulin-Different-Phenotype (%) reported for Cl.Cl.Nc1ncnc2c1c(-c1cccc(OCc3ccccc3)c1)cn2[C@H]1C[C@@H](CN2CCC2)C1 is less than 40%?
### Response 0.0

### Prompt Is it true that Population Tubulin-Different-Phenotype (%) reported for CCC(=O)O[C@]1(C(=O)SCF)[C@H](C)C[C@H]2[C@@H]3C[C@H](F)C4=CC(=O)C=C[C@]4(C)[C@@]3(F)[C@@H](O)C[C@@]21C [FLUTICASONE PROPIONATE] is less than 40%?
### Response 1.0

### Prompt Is it true that Population Tubulin-Different-Phenotype (%) reported for CCc1cc2c(cc1CC)CC(NC[C@H](O)c1ccc(O)c3[nH]c(=O)ccc13)C2 is less than 40%?
### Response 0.0

### Prompt Is it true that Population Tubulin-Different-Phenotype (%) reported for CCCn1c(=O)c2[nH]c(C34CC5CC(CC3C5)C4)nc2n(CCC)c1=O is less than 40%?
### Response 1.0

* * *

Test system: U2OS
method-notes: Multiplex assay against U2OS
Format: toxicity, cell-based
condition-details: human, 24 h, 10 µM, compound concentration 10 uM, replicate 1
With a cut-off of 30%, any Population Membrane Permeable-Phenotype (%) strictly below it is called y; any Population Membrane Permeable-Phenotype (%) meeting it or above is called n.

### Prompt Is it true that Population Membrane Permeable-Phenotype (%) reported for CC(C)(C)c1cnc(CSc2cnc(NC(=O)C3CCNCC3)s2)o1 is less than 30%?
### Response y

### Prompt Is it true that Population Membrane Permeable-Phenotype (%) reported for CNC(=O)c1cc(Oc2ccc(NC(=O)Nc3cc(C(C)(C)C)nn3-c3ccc4ncccc4c3)c(F)c2)ccn1 is less than 30%?
### Response n

### Prompt Is it true that Population Membrane Permeable-Phenotype (%) reported for c1ccc2oc(-c3csc(C4CCN(Cc5nc6ncccc6[nH]5)CC4)n3)cc2c1 is less than 30%?
### Response y

### Prompt Is it true that Population Membrane Permeable-Phenotype (%) reported for Cc1cn(-c2cc(NC(=O)c3ccc4c(c3)CN(c3cncnc3)C[C@@H]4C)cc(C(F)(F)F)c2)cn1 is less than 30%?
### Response y

### Prompt Is it true that Population Membrane Permeable-Phenotype (%) reported for CNc1oc(-c2cccc3ccccc23)nc1C#N is less than 30%?
### Response y

* * *

Record form. Attribute: Population Healthy Nuclei (%). Fill in for each entry.
System: Fibroblast
method-notes: Multiplex assay against human fibroblast
Assay type: toxicity, cell-based
condition-details: 24 h, 1 µM, compound concentration 1 uM, replicate 1
Answer with a number only, understood to be in %.

### Prompt Any idea what its Population Healthy Nuclei (%) is? The molecule is Cc1nc(Cc2cccc(C(F)(F)F)c2)sc1-c1ccc(C(N)=O)nc1 [TP-024n]
### Response 51

### Prompt Any idea what its Population Healthy Nuclei (%) is? The molecule is N#Cc1cnc(Nc2cc(NC[C@H]3CNCCO3)c(C(F)(F)F)cn2)cn1
### Response 56

### Prompt Any idea what its Population Healthy Nuclei (%) is? The molecule is Cl.Cl.Nc1ncnc2c1c(-c1cccc(OCc3ccccc3)c1)cn2[C@H]1C[C@@H](CN2CCC2)C1
### Response 57

### Prompt Any idea what its Population Healthy Nuclei (%) is? The molecule is CCOc1cc(N2CCC(O)CC2)ccc1Nc1ncc2c(n1)N(C1CCCC1)CCC(=O)N2C
### Response 56

### Prompt Any idea what its Population Healthy Nuclei (%) is? The molecule is CCc1cc2c(cc1CC)CC(NC[C@H](O)c1ccc(O)c3[nH]c(=O)ccc13)C2
### Response 62

* * *

Record form. Attribute: Population Mitotic Cells (%). Fill in for each entry.
Tested on: U2OS
method-notes: Multiplex assay against U2OS
Assay type: toxicity, cell-based
condition-details: human, 24 h, 1 µM, compound concentration 1 uM, replicate 2
Answer with a number only, understood to be in %.

### Prompt Any idea what its Population Mitotic Cells (%) is? The molecule is c1ccc2oc(-c3csc(C4CCN(Cc5nc6ncccc6[nH]5)CC4)n3)cc2c1
### Response 75

### Prompt Any idea what its Population Mitotic Cells (%) is? The molecule is COc1cc2c(NC3CCN(C(C)C)CC3)nc(N3CCC(F)(F)CC3)nc2cc1OCCCN1CCCC1
### Response 70

### Prompt Any idea what its Population Mitotic Cells (%) is? The molecule is CN(C)CCOc1ccc(-c2nc(-c3ccncc3)c(-c3ccc4c(c3)CC/C4=N\O)[nH]2)cc1 [SB590885]
### Response 8

### Prompt Any idea what its Population Mitotic Cells (%) is? The molecule is Cc1cc2c(cc1N1C(=O)c3cccc4c(CCCO)ccc(c34)C1=O)n(C)c(=O)n2C
### Response 60

### Prompt Any idea what its Population Mitotic Cells (%) is? The molecule is Cc1cn(-c2cc(NC(=O)c3ccc4c(c3)CN(c3cncnc3)C[C@@H]4C)cc(C(F)(F)F)c2)cn1
### Response 57

### Prompt Any idea what its Population Mitotic Cells (%) is? The molecule is CN(C)C/C=C/C(=O)Nc1cc2c(Nc3ccc(F)c(Cl)c3)ncnc2cc1O[C@H]1CCOC1.O=C(O)/C=C\C(=O)O.O=C(O)/C=C\C(=O)O [AFATINIB DIMALEATE]
### Response 25

### Prompt Any idea what its Population Mitotic Cells (%) is? The molecule is Cc1nc(Cc2cccc(C(F)(F)F)c2)sc1-c1ccc(C(N)=O)nc1 [TP-024n]
### Response 50

### Prompt Any idea what its Population Mitotic Cells (%) is? The molecule is COc1cc2c(Nc3ccc(NC(=O)c4ccccc4)cc3)ncnc2cc1OCCCN1CCOCC1
### Response 73

The measurements presented in this section are drawn from ChEMBL document CHEMBL4689842.
